Catalogue of molecules with associated IC50
target.system: HDAC1 enzyme (Homo sapiens)
Sequence (Q13547 whole entry): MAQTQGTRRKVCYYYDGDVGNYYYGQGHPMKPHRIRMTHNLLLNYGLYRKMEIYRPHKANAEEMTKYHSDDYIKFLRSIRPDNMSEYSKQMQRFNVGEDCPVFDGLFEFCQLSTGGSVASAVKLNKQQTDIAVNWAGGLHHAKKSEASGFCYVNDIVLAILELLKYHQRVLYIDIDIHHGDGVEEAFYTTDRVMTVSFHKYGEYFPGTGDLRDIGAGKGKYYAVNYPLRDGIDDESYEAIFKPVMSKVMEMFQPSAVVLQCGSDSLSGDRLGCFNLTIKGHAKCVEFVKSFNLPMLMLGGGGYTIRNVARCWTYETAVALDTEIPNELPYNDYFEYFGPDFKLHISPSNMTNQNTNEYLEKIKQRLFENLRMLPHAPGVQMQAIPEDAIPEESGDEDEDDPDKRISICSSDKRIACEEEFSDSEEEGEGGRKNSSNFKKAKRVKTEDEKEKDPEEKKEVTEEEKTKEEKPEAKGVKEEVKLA
method: In vitro HDAC assay (BIOMOL fluorescent-based HDAC activity assay), HDAC1
Assay type: biochemical
experimental.parameters: Table 3; read-out: HDAC1 Enzyme Activity IC50

>  <line.notation>
O=C(/C=C/c1ccc2c(c1)nc(COCc1ccccc1)n2CCc1cccnc1)NO

>  <unit.text>
µM

>  <IC50>
0.206

$$$$
>  <line.notation>
CC(C)Cc1nc2cc(CCC(=O)NO)ccc2n1CCCO

>  <unit.text>
µM

>  <IC50>
49.1

$$$$
>  <line.notation>
CC(C)c1nc2cc(/C=C/C(=O)NO)ccc2n1CCCO

>  <unit.text>
µM

>  <IC50>
1.67

$$$$
>  <line.notation>
O=C(/C=C/c1ccc2c(c1)ncn2CCN1CCCCC1)NO

>  <unit.text>
µM

>  <IC50>
0.166

$$$$
>  <line.notation>
CC(C)Cc1nc2cc(/C=C/C(=O)NO)ccc2n1CCc1ccccn1

>  <unit.text>
µM

>  <IC50>
1.33

$$$$

====

target.system: HDAC8 enzyme
method: In vitro HDAC assay (BIOMOL fluorescent-based HDAC activity assay), HDAC8
Format: biochemical, human
experimental.parameters: Table 3; read-out: HDAC8 Enzyme Activity IC50
pIC50: −log10 of the molar value.

>  <compound>
CC(C)Cc1nc2cc(CCC(=O)NO)ccc2n1CCCO [Compound 29]

>  <target.system>
HDAC8 enzyme

>  <pIC50>
4.47

$$$$
>  <compound>
CC(Cc1nc2cc(/C=C/C(=O)NO)ccc2n1CCCO)c1ccccc1 (centres unmarked) [Compound 1]

>  <target.system>
HDAC8 enzyme

>  <pIC50>
6.92

$$$$
>  <compound>
O=C(/C=C/c1ccc2c(c1)nc(CCc1ccccc1)n2Cc1ccccc1)NO [Compound 33]

>  <target.system>
HDAC8 enzyme

>  <pIC50>
5.84

$$$$
>  <compound>
COc1cc(-c2nc3cc(/C=C/C(=O)NO)ccc3n2CCCO)ccc1OCc1ccccc1 [Compound 4]

>  <target.system>
HDAC8 enzyme

>  <pIC50>
6.10

$$$$
>  <compound>
O=C(/C=C/c1ccc2c(c1)nc(COCc1ccccc1)n2CCc1cccnc1)NO [Compound 28]

>  <target.system>
HDAC8 enzyme

>  <pIC50>
6.52

$$$$
>  <compound>
O=C(/C=C/c1ccc2c(c1)nc(-c1ccncc1)n2CCCO)NO [Compound 11]

>  <target.system>
HDAC8 enzyme

>  <pIC50>
6.79

$$$$
>  <compound>
CC(C)Cc1nc2cc(/C=C/C(=O)NO)ccc2n1CCCO [Compound 21]

>  <target.system>
HDAC8 enzyme

>  <pIC50>
6.62

$$$$
>  <compound>
O=C(/C=C/c1ccc2c(c1)nc(-c1ccsc1)n2CCCO)NO [Compound 20]

>  <target.system>
HDAC8 enzyme

>  <pIC50>
6.27

$$$$
>  <compound>
CN(C)CC(C)(C)Cn1c(CCc2ccccc2)nc2cc(/C=C/C(=O)NO)ccc21 [Compound 17]

>  <target.system>
HDAC8 enzyme

>  <pIC50>
6.45

$$$$
>  <compound>
COc1ccc(-c2nc3cc(/C=C/C(=O)NO)ccc3n2CCO)cc1 [Compound 5]

>  <target.system>
HDAC8 enzyme

>  <pIC50>
6.40

$$$$
>  <compound>
O=C(/C=C/c1ccc2c(c1)ncn2Cc1ccccc1)NO [Compound 35]

>  <target.system>
HDAC8 enzyme

>  <pIC50>
6.39

$$$$
